- system: panel of more than 300 wild-type and mutant kinases (313 kinase panel) (Homo sapiens)
- Sequence (O15264 whole entry, change not shown): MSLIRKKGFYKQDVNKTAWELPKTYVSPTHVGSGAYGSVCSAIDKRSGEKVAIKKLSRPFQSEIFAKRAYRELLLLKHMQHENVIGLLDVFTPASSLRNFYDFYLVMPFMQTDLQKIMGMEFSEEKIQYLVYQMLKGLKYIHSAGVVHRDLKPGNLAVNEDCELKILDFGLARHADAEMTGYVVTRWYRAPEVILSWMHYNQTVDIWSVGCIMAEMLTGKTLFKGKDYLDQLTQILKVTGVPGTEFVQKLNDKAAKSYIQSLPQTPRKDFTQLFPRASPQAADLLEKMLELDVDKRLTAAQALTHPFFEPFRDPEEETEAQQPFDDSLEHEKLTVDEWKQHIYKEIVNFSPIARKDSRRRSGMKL
- procedure.summary: Kinase profiling in a biochemical assay panel (mobility shift assays and ELISA), %-inhibition at 1 μM; selectivity entropy
- measurement.parameters: kinase p38δ; 1 μM
readout.label: %-inhibition of p38δ (%)

{"columns": ["record.smiles", "readout.label", "reported"],
 "data": [
  ["C[C@@H](Oc1cc(-c2cnn(C3CCNCC3)c2)cnc1N)c1c(Cl)ccc(F)c1Cl", "%-inhibition of p38δ", -3.41],
  ["CC(C)(C)c1nc(-c2cccc(NS(=O)(=O)c3c(F)cccc3F)c2F)c(-c2ccnc(N)n2)s1", "%-inhibition of p38δ", -3.43],
  ["CS(=O)(=O)CCNCc1ccc(-c2ccc3ncnc(Nc4ccc(OCc5cccc(F)c5)c(Cl)c4)c3c2)o1", "%-inhibition of p38δ", 5.43],
  ["O=S(=O)(c1cccc2cnccc12)N1CCCNCC1", "%-inhibition of p38δ", -4.39],
  ["Cc1cn(-c2cc(NC(=O)c3ccc(C)c(Nc4nccc(-c5cccnc5)n4)c3)cc(C(F)(F)F)c2)cn1", "%-inhibition of p38δ", -10],
  ["CO[C@H]1C[C@@H]2CC[C@@H](C)[C@@](O)(O2)C(=O)C(=O)N2CCCC[C@H]2C(=O)O[C@H]([C@H](C)C[C@@H]2CC[C@@H](OCCO)[C@H](OC)C2)CC(=O)[C@H](C)/C=C(\\C)[C@@H](O)[C@@H](OC)C(=O)[C@H](C)C[C@H](C)/C=C/C=C/C=C/1C", "%-inhibition of p38δ", -9]
]}
